Assay: Plasma pharmacokinetics of rucaparib (LC-MS/MS, noncompartmental)
Conditions: human, plasma, po, 36 mg
quantity name: bioavailability

Give bioavailability for the following compound: CNCc1ccc(-c2[nH]c3cc(F)cc4c3c2CCNC4=O)cc1
45.3%

###

Experiment: Plasma pharmacokinetics of rucaparib (LC-MS/MS, noncompartmental)
Conditions: human, plasma, iv, 12 mg, Cmax, single i.v. dose 12 mg, day –10; geometric mean (CV%)
quantity name: Cmax (µg/mL)
API: value field is a number in µg/mL; no unit string.

Give Cmax for the following molecule: CNCc1ccc(-c2[nH]c3cc(F)cc4c3c2CCNC4=O)cc1
0.324

###

Assay: Plasma pharmacokinetics of rucaparib (LC-MS/MS, noncompartmental)
Details: human, plasma, iv, 24 mg
quantity name: Vd (L)
API: value field is a number in L; no unit string.

Give Vd for the following compound: CNCc1ccc(-c2[nH]c3cc(F)cc4c3c2CCNC4=O)cc1
262

###

Assay: Plasma pharmacokinetics of rucaparib (LC-MS/MS, noncompartmental)
Settings: human, plasma, po, 360 mg, AUC0-24, single oral dose 360 mg, day 1; geometric mean (CV%)
quantity name: AUC(0-t) (ng·h/mL)
API: value field is a number in ng·h/mL; no unit string.

Give AUC(0-t) for the following molecule: CNCc1ccc(-c2[nH]c3cc(F)cc4c3c2CCNC4=O)cc1
8280

###

Test: Plasma pharmacokinetics of rucaparib (LC-MS/MS, noncompartmental)
Conditions: human, plasma, iv, 27 mg
quantity name: Vd

Give Vd for the following compound: CNCc1ccc(-c2[nH]c3cc(F)cc4c3c2CCNC4=O)cc1
191 L

###

Experiment: Plasma pharmacokinetics of rucaparib (LC-MS/MS, noncompartmental)
Conditions: human, plasma, po, 80 mg, AUC0-24, single oral dose 80 mg, day 1; geometric mean (CV%)
quantity name: AUC(0-t) (ng·h/mL)
API: value field is a number in ng·h/mL; no unit string.

Give AUC(0-t) for the following compound: CNCc1ccc(-c2[nH]c3cc(F)cc4c3c2CCNC4=O)cc1 [rucaparib]
1380

###

Assay: clinical
Conditions: human, in vivo, po, 120 mg, t1/2
quantity name: half-life (h)
API: value field is a number in h; no unit string.

Give half-life for the following molecule: CNCc1ccc(-c2[nH]c3cc(F)cc4c3c2CCNC4=O)cc1
13.3

###

Experiment: Plasma pharmacokinetics of rucaparib (LC-MS/MS, noncompartmental)
Conditions: human, plasma, po
quantity name: bioavailability (%)
API: value field is a number in %; no unit string.

Give bioavailability for the following compound: CNCc1ccc(-c2[nH]c3cc(F)cc4c3c2CCNC4=O)cc1
36

###

Experiment: Plasma pharmacokinetics of rucaparib (LC-MS/MS, noncompartmental)
Details: human, plasma, po, 180 mg, AUC0-24, single oral dose 180 mg, day 1; geometric mean (CV%)
quantity name: AUC(0-t) (ng·h/mL)
API: value field is a number in ng·h/mL; no unit string.

Give AUC(0-t) for the following molecule: CNCc1ccc(-c2[nH]c3cc(F)cc4c3c2CCNC4=O)cc1
5920

###

Assay: Plasma pharmacokinetics of rucaparib (LC-MS/MS, noncompartmental)
Conditions: human, plasma, iv, 27 mg, tmax, single i.v. dose 27 mg, day –10; median (minimum, maximum)
quantity name: Tmax (min)
API: value field is a number in min; no unit string.

Give Tmax for the following compound: CNCc1ccc(-c2[nH]c3cc(F)cc4c3c2CCNC4=O)cc1
22.8
